The next entries give measured pIC50 for HGFR (His6-HGFR cytoplasmic domain) (Homo sapiens, UniProt P08581).
pIC50: −log10 of the molar value.
Assay Endpoint: pIC50

O=C(Cc1ccc(F)cc1)NC(=S)Nc1ccc(Oc2ccnc(NC(=O)N3CCC(N4CCC(O)CC4)CC3)c2)cc1 :: 7.22

[A] CN(C)CCN1CCC(N(C)C(=O)Nc2cc(Oc3ccc(NC(=S)NC(=O)Cc4ccc(F)cc4)c(F)c3)ccn2)CC1
[B] CN1CC(N2CCN(C(=O)Nc3cc(Oc4ccc(NC(=S)NC(=O)Cc5ccc(F)cc5)cc4F)ncn3)CC2)C1
*Q* When the recorded pIC50 values are compared, which is smaller: that of A or that of B ? Your choice should be expressed through its label.
*A* A
(A: 6.80, B: 7.24)
